Tested on: Aβ42
measurement.notes: Screening for γ-secretase-modulating activity in SKNBE2 cells carrying APP 695 wild type: Aβ42 in cell supernatant (Alphalisa)
Type: cell-based
applied.conditions: Homo sapiens, SKNBE2, SKNBE2 cells carrying APP 695 wild type, overnight incubation
recorded.metric: IC50 (nM)

{"molecule": "COc1cc(Nc2nc3n(n2)CCOC3c2ccccc2C(F)(F)F)ccc1-n1cnc(C)c1 (stereo not shown) [Compound 47]", "recorded.metric": "IC50", "test.value": 55}

a = COc1cc(Nc2nc3n(n2)CCC(C)C3c2ccc(F)cc2)ccc1-c1ccnc(C)c1 (racemic) [Compound 101]
b = COc1cc(Nc2nc3n(n2)CCC[C@@H]3c2ccccc2Cl)ccc1-n1cnc(C)c1 [Compound 28]
c = Cc1cc(-c2ccc(Nc3nc4n(n3)CCCC4c3c(F)cccc3Cl)cc2)ccn1 (stereo not shown) [Compound 116]
Query :: Please list the entries, largest IC50 first. Sort and list the labels as requested.
Result :: c, a, b
